# System Under Test: Cytochrome P450 2D6 (Homo sapiens) (UniProt P10635)
# Sequence (P10635 whole entry, looked up): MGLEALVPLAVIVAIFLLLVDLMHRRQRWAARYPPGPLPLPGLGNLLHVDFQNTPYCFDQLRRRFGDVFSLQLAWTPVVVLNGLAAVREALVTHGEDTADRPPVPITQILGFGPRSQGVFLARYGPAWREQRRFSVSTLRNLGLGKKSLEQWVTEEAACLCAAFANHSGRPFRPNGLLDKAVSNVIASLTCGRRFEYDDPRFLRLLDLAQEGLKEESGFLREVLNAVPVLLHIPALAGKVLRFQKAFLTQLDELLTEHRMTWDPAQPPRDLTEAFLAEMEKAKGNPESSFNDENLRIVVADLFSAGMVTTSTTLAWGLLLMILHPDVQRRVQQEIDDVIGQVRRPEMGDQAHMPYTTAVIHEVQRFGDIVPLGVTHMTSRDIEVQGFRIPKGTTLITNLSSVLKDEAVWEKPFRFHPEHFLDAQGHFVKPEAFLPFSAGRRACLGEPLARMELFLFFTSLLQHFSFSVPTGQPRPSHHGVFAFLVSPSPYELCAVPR
# Assay Protocol: Cytochrome P450 family 2 subfamily D member 6 (CYP2D6) small molecule antagonists: luciferase biochemical (cell-free) qHTS assay (AID 1645840); also: nearly all actives have a fitted effect of over 55% in size
# Assay Conditions: P450-Glo CYP2D6 enzyme, luciferin luminescence, 1 h; series mostly up to 57.4 µM
Records with an inconclusive call do not appear. Active and inactive are the calls of the source. Calls follow the shape of the dose curve; as a rule, active = well fitted inhibition curve with a large enough effect in the repeat runs; inconclusive = weak or mixed curves; inactive = flat fitted curve, though single readings scatter.
Answer with one of the outcomes active, inactive

CC(C)=CCC/C(C)=C/CC/C(C)=C/CC/C=C(\C)CC/C=C(\C)CCC=C(C)C	inactive
O=C(CO)[C@@H](O)[C@H](O)[C@@H](O)C(=O)O	inactive
C[C@H]1O[C@@H](O[C@H]2[C@@H](O)C[C@H](O[C@H]3[C@@H](O)C[C@H](O[C@H]4CC[C@@]5(C)[C@H](CC[C@@H]6[C@@H]5C[C@@H](O)[C@]5(C)[C@@H](C7=CC(=O)OC7)CC[C@]65O)C4)O[C@@H]3C)O[C@@H]2C)C[C@H](O)[C@@H]1O	inactive
CC(=O)Oc1cc(C(F)(F)F)ccc1C(=O)O	inactive
CCN(CC)CCOCCOC(=O)C(CC)(CC)c1ccccc1	active
C/C=C/C=C/C(=O)O	inactive
Cc1ncc(C[n+]2csc(CCO)c2C)c(N)n1	inactive
Nc1nccs1	inactive

-- ask Write down the call the test reported for this molecule. Item: CC1(O)CCC(C(C)(C)O)CC1 (stereo unspecified)
-- reply inactive

-- ask What call does the record list for CCOc1ccc(S(=O)(=O)O)c2cccnc12 ?
-- reply inactive

-- ask Please indicate how the test categorized O=C1CCC(=O)N1CO .
-- reply inactive

-- ask Could you kindly confirm the outcome this assay logged for C=C1[C@H](CO)[C@@H](O)C[C@@H]1n1cnc2c(=O)[nH]c(N)nc21 ?
-- reply inactive

-- ask Which outcome was entered for the molecule CO[C@H]1O[C@@H]2O[C@@]3(C)CC[C@H]4[C@H](C)CC[C@@H]([C@H]1C)[C@@]24OO3 in this test?
-- reply inactive

-- ask Recorded call for COc1ccc2nc(NC(=O)Nc3ccccc3)sc2c1 ?
-- reply inactive

-- ask Dear colleague, could you share the recorded outcome for CC(C)[C@@H]1CC[C@@H](C)C[C@H]1OC(=O)c1ccccc1O when you have a moment?
-- reply inactive

-- ask Any idea what this test logged for CCOC(C)OCC ?
-- reply inactive

----------
# Test system: W2
# Assay Protocol: qHTS profiling for inhibitors of Plasmodium falciparum proliferation (AID 504749); also: nearly all actives have a fitted effect of over 60% in size
# Assay Conditions: P. falciparum in erythrocytes, SYBR Green DNA, 72 h; series mostly up to 28.7 µM
Inconclusive results are not listed. Activity calls are given as the source filed them. Calls come from the whole dose curve; as a rule, active = well fitted inhibition curve with a large enough effect; inconclusive = small, poorly fitted or top-dose-only effect; inactive = flat fitted curve, though single readings scatter.
Write down the outcome that applies. Available outcomes: 1 = active, -1 = inactive

Previously resolved entries follow.
COC(=O)CCC[N+](C)(C)C	-1
Cc1ccccn1	-1

-- ask Please indicate how the test categorized CCOc1cc(-c2nccc3cc(OC)c(OC)cc23)cc(OCC)c1OCC .
-- reply 1

-- ask What classification did CCOC(C)OCC end up with in this test?
-- reply -1

-- ask Which result was noted for this compound in the test: O=P(O)(O)O
-- reply -1

-- ask Tell me the assay call for O=S(=O)(O)CCCS(=O)(=O)O please.
-- reply -1

-- ask Returns: the outcome recorded for CCC(C(=O)NC(N)=O)c1ccccc1 (centres undefined) in this assay.
-- reply -1

-- ask Please state the recorded outcome for this compound: CC12CCC(C[N+](C)(CCC[N+](C)(C)C)C1)C2(C)C (centres undefined)
-- reply -1

-- ask Dear colleague, could you share the recorded outcome for CCCCCCOC(=O)c1cccnc1 when you have a moment?
-- reply -1

-- ask Tell me the recorded outcome of this test for COc1cc(S(C)=O)ccc1-c1nc2ncccc2[nH]1 (centres undefined) .
-- reply -1

-- ask GET /call?item= Cc1ccc(S(=O)(=O)NCl)cc1 returns the recorded outcome of this test.
-- reply -1

-- ask What did this assay record as the result for O=C1[O][Bi][O]c2ccccc21 ?
-- reply -1

-- ask Each compound tested received a call. Report the one for O=C(O)Cc1cc(I)c(Oc2ccc(O)c(I)c2)c(I)c1 .
-- reply -1

-- ask Record request — test call for Cc1ncc(C[n+]2csc(CCO)c2C)c(N)n1
-- reply -1

-- ask Entry CC(=O)Nc1ccc(OC(C)=O)cc1 : call = ?
-- reply -1

-- ask So what was the verdict on CCN(CC)CCOc1ccc2nc(N(C)C)sc2c1 in this test?
-- reply -1

-- ask Hi, do you know how CCCCCCCCCCCCCCCCCC(=O)OC[C@@H](O)[C@H]1OC[C@H](O)[C@H]1O came out in this test?
-- reply -1
